- MEASURED ON: hemagglutinin on live influenza A virus, A/California/4/09 H1N1 (Influenza A virus …)
- EXPERIMENT NOTES: cell-based or functional assay
Kindly supply the reported % Neutralization values for the records listed here.
Response body: numeric value in %, unit text excluded.

Lookup: GET /values?readout=% Neutralization&item= TCN-560 (5084_P10) (antibody, V domains shown) VH: EVQLVESGGGLVQPGGSLRLSCAASGFIFRNYWMSWVRQAPGKGLEWVANIKQDGREKYYVDSLRGRVNISRDNAENSLYLHMNSLRVEDTAVYFCARARMVVVTGDGFDVWGHGTMVTVSS VL: DIQMTQSPSSLSASVGDRVTITCRASQNIKRYFNWYQQKPGKAPKLLIYAASNLENGVPSRFSGSGSGTDFTLTISSLQPEDFATYYCQQSFSKSWTFGQGTNVDIK
Found: 0

Lookup: GET /values?readout=% Neutralization&item= TCN-547 (5092_F11) (antibody, V domains shown) VH: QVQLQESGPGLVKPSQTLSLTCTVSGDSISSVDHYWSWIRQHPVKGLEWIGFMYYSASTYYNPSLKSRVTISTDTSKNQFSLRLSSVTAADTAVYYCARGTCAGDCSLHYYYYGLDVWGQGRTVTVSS VL: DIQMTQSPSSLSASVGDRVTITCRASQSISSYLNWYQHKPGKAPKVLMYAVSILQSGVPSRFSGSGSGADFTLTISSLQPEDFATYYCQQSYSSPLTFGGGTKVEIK
Found: 0

Lookup: GET /values?readout=% Neutralization&item= TCN-538 (3206_O17) (antibody, V domains shown) VH: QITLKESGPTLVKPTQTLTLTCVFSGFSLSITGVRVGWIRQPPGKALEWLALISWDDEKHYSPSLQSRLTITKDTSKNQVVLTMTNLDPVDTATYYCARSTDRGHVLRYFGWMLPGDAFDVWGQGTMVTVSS VL: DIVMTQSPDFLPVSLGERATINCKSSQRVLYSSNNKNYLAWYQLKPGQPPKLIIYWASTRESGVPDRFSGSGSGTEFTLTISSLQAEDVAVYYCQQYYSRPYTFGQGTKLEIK
Found: 66

Lookup: GET /values?readout=% Neutralization&item= TCN-544 (5082_A19) (antibody, V domains shown) VH: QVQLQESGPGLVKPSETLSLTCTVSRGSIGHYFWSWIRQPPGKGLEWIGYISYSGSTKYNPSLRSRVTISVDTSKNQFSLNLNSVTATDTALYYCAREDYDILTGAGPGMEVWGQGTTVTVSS VL: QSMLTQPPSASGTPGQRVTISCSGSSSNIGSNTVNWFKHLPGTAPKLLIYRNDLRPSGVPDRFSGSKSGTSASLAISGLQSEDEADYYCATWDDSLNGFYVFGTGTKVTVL
Found: 0

Lookup: GET /values?readout=% Neutralization&item= TCN-554 (5277_M05) (antibody, V domains shown) VH: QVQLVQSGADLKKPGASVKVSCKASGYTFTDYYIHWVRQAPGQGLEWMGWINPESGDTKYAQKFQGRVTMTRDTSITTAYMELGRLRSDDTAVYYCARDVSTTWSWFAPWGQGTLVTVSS VL: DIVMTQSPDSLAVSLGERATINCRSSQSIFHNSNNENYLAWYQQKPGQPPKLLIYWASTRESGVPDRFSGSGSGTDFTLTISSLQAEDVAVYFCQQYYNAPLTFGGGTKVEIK
Found: 0
